- Test system: Enterobacter cloacae ATCC 27508
- experimental-details: Antibacterial activity MIC, two-fold agar dilution
- Assay type: cell-based
- applied-conditions: ATCC27508; Enterobacter cloacae ATCC 27508; Muller-Hinton agar, 37° C., 20 hours; read-out: Antibacterial Activity MIC
readout-type: MIC (µg/mL)
Quick note: give the figure in µg/mL, leave out the unit.

CCO/N=C(\C(=O)N[C@@H]1C(=O)N2C(C(=O)[O-])=C(CSc3cc(N)[n+](C)c(N)n3)CS[C@H]12)c1nsc(N)n1 ... 0.016

Which MIC is reported for this compound? C[n+]1c(N)cc(SCC2=C(C(=O)[O-])N3C(=O)[C@@H](NC(=O)/C(=N\OC(C)(C)C(=O)O)c4csc(N)n4)[C@H]3SC2)nc1N
0.031

Which MIC is reported for this compound? CO/N=C(\C(=O)N[C@@H]1C(=O)N2C(C(=O)[O-])=C(CSc3cc(N)nc(N)[n+]3C)CS[C@H]12)c1csc(N)n1
0.016

Which MIC is reported for this compound? CC[n+]1c(N)cc(SCC2=C(C(=O)[O-])N3C(=O)[C@@H](NC(=O)/C(=N\OC(C)(C)C(=O)O)c4csc(N)n4)[C@H]3SC2)nc1N
0.031

Which MIC is reported for this compound? CC(O/N=C(\C(=O)N[C@@H]1C(=O)N2C(C(=O)[O-])=C(CSc3cc(N)[n+](C)c(N)n3)CS[C@H]12)c1csc(N)n1)C(=O)O (stereo partly drawn)
0.031

Which MIC is reported for this compound? C#CCO/N=C(\C(=O)N[C@@H]1C(=O)N2C(C(=O)[O-])=C(CSc3cc(N)[n+](CC)c(N)n3)CS[C@H]12)c1csc(N)n1
0.031

The values you see were collected from patent US5292733A.
